Values compiled from paper PMC10320005.

- TARGET: CgdH2 (Cj0363c) (Campylobacter jejuni)
- Sequence (Q0PBE7 1-448): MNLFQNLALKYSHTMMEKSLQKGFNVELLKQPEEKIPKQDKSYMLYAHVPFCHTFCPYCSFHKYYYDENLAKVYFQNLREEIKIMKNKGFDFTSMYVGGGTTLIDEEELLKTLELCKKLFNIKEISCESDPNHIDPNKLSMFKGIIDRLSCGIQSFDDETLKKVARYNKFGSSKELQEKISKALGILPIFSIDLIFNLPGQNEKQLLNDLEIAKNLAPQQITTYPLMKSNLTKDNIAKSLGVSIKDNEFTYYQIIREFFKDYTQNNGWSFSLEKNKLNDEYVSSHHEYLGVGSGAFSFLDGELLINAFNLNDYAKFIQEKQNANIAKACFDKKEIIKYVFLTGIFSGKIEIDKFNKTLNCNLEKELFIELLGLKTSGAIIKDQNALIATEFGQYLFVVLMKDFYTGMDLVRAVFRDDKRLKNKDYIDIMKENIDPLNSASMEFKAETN
pKd: −log10 of the molar value.
MEASURE_NAME: pKd

{"columns": ["CHEMICAL_SMILES", "TARGET", "EXPERIMENTAL_VALUE"],
 "data": [
  ["C=CC1=C(C)C2=Cc3c(C=C)c(C)c4[n]3[Fe]([Cl])[n]3c(c(C)c(CCC(=O)O)c3=CC3=NC(=C4)C(C)=C3CCC(=O)O)=CC1=N2", "CgdH2 (Cj0363c) (Campylobacter jejuni)", 5.31]
]}
